Would you kindly list MFI at 100 nM for each of these binders?
- test-system: T1, TIGIT (Homo sapiens (Human), UniProt Q495A1 22-244)
- T1 sequence: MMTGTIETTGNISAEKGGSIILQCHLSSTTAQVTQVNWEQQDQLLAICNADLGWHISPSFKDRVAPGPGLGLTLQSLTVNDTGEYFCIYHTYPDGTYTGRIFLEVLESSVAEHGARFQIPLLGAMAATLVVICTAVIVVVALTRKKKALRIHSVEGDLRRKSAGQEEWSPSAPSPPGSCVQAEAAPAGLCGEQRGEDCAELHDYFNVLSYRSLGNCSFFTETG
- assay-method-text: flow cytometry, Fc fusion at 100 nM, TIGIT-transfected cells

Let me know recorded MFI at 100 nM for variant CD155 IgV-Fc Q62F/L104E/G111R (Fc fusion, not shown: a dimerising Fc or GST) WPPPGTGDVVVQAPTQVPGFLGDSVTLPCYLQVPNMEVTHVSQLTWARHGESGSMAVFHQTFGPSYSESKRLEFVAARLGAELRNASLRMFGLRVEDEGNYTCEFVTFPQRSRSVDIWLRVL , thanks.
1970 MFI

Please report the measured MFI at 100 nM for variant CD155 IgV-Fc S52W/L104E (Fc fusion, not shown: a dimerising Fc or GST) WPPPGTGDVVVQAPTQVPGFLGDSVTLPCYLQVPNMEVTHVSQLTWARHGEWGSMAVFHQTQGPSYSESKRLEFVAARLGAELRNASLRMFGLRVEDEGNYTCEFVTFPQGSRSVDIWLRVL
1940 MFI

Give me measured MFI at 100 nM, please, for this binder: variant CD155 IgV-Fc S52W (Fc fusion, not shown: a dimerising Fc or GST) WPPPGTGDVVVQAPTQVPGFLGDSVTLPCYLQVPNMEVTHVSQLTWARHGEWGSMAVFHQTQGPSYSESKRLEFVAARLGAELRNASLRMFGLRVEDEGNYTCLFVTFPQGSRSVDIWLRVL
1990 MFI
